- Tested on: asymmetric di-methyl PABP1 in RKO cells
- MEASUREMENT_PROTOCOL: In Cell Western (ICW) for asymmetric di-methyl PABP1 and DNA content in RKO cells
- Format: cell-based
- ASSAY_SETUP: Homo sapiens, RKO, In Cell Western
- Procedure: RKO adherent cells were purchased from ATCC (American Type Culture Collection), Manassas, Va., USA. […] Calculations: First, the ratio for each well was determined by: Each plate included fourteen control wells of DMSO only treatment (minimum inhibition) as well as fourteen control wells for maximum inhibition treated with 20 μM of a reference compound. The average of the ratio values for each control type was calculated and used to determine the percent activation for each test well in the plate. […]
VALUE_KIND: log10 IC50 (log10 of the value in µM)

MOLECULE	VALUE_KIND	READOUT_VALUE
CNCCN(C)Cc1cccc(-c2cc(OC)c3cnn(C(C)C)c3n2)c1	log10 IC50	1.25
CNCCN(C)Cc1cccc(-c2cc(C(=O)NCc3cc(C)on3)c3cnn(C(C)C)c3n2)c1	log10 IC50	0.15
CC(C)n1ncc2c(C(=O)N3CCCCC3)cc(-c3cccc(CNCCN)c3)nc21	log10 IC50	1.30
Cc1c(C(=O)NC2CCOCC2)cc(-c2cccc(CN(C)CCN)c2)cc1N(C)CC1CC1	log10 IC50	1.30
CC(C)n1ncc2c(C(=O)NC3CCOCC3)cc(-c3cccc(CN(C)CCNC4CC4)c3)nc21	log10 IC50	1.09
CNCCN(C)Cc1cccc(-c2nc(NCc3cn4ccsc4n3)c3cnn(C4CC4)c3n2)c1	log10 IC50	-0.41
CNCCN(C)Cc1cccc(-c2cc(NS(=O)(=O)C(F)(F)F)c3cnn(C(C)C)c3n2)c1	log10 IC50	1.08
CNCCN(C)Cc1cccc(-c2cc(C(=O)NCc3nccs3)c3cnn(C(C)C)c3n2)c1	log10 IC50	0.21
CCn1ncc2c(C(=O)NC3CCOCC3)cc(-c3cccc(CN(C)CCNC)c3)nc21	log10 IC50	0.78
CCn1ncc2c(C(=O)NCC3CCOCC3)cc(-c3cccc(CN(C)CCNC)c3)nc21	log10 IC50	0.68
CCOc1cc(-c2cccc(CN(C)CCNC)c2)nc2c1cnn2C(C)C	log10 IC50	0.54
CC(C)n1ncc2c(C(=O)NCc3ccncc3)cc(-c3cccc(CN(C)CCN)c3)nc21	log10 IC50	0.50
CNCCN(C)Cc1cccc(-c2nc(NC3CCOCC3)c3cnn(C(C)(C)C)c3n2)c1	log10 IC50	-0.41
CC(C)n1ncc2c(C(=O)N(C)CC3CCOCC3)cc(-c3cccc(CN(C)CCN)c3)nc21	log10 IC50	0.98
CNCCN(C)Cc1cccc(-c2cc(C(=O)NCc3cnc4ccccn34)c3cnn(C(C)C)c3n2)c1	log10 IC50	-0.06
CCOC(=O)Nc1cc(-c2cccc(CN(C)CCNC)c2)nc2c1cnn2C(C)C	log10 IC50	0.76
CN(CCN)Cc1cccc(-c2cc(C(=O)NC3CCOCC3)c3cnn(CC(F)(F)F)c3n2)c1	log10 IC50	0.93
CNCCN(C)Cc1cccc(-c2nc(NCc3cnn(C)c3C)c3cnn(C4CC4)c3n2)c1	log10 IC50	1.30
CC(C)n1ncc2c(C(=O)NCc3cnc4ccccn34)cc(-c3cccc(CN(C)CCN)c3)nc21	log10 IC50	0.08
CNCCN(C)Cc1cccc(-c2cc(C(=O)N(C)Cc3cccnc3)c3cnn(C(C)C)c3n2)c1	log10 IC50	0.60
CNCCN(C)Cc1cccc(-c2cc(NC3CC3)c3cnn(C(C)C)c3n2)c1	log10 IC50	0.54
CC(C)n1ncc2c(C(=O)NCC3CCOCC3)cc(-c3cccc(CN(C)CCNC4CCC4)c3)nc21	log10 IC50	1.16
CN(CCN)Cc1cccc(-c2cc(C(=O)NC3CCOCC3)c3cnn(C4CC4)c3n2)c1	log10 IC50	0.44
CC(C)n1ncc2c(C(=O)N3CCN(C)C(=O)C3)cc(-c3cccc(CN(C)CCN)c3)nc21	log10 IC50	1.30
CC(C)n1ncc2c(C(=O)NC3CCOC3)cc(-c3cccc(CN(C)CCN)c3)nc21 (centres unmarked)	log10 IC50	0.30
CCC(=O)c1cc(-c2cccc(CN(C)CCNC)c2)nc2c1cnn2C(C)C	log10 IC50	1.30
CC(C)n1ncc2c(C(=O)NCc3nccs3)cc(-c3cccc(CN(C)CCN)c3)nc21	log10 IC50	0.28
CC(C)n1ncc2c(C(=O)NCc3ccn(C)n3)cc(-c3cccc(CN(C)CCN)c3)nc21	log10 IC50	0.09
CNCCN(C)Cc1cccc(-c2cc(N3CCCC3)c3cnn(C(C)C)c3n2)c1	log10 IC50	1.30
CNCCN(C)Cc1cccc(-c2cc(N(C)C3CC3)c3cnn(C(C)C)c3n2)c1	log10 IC50	0.83
CC(C)n1ncc2c(N3CCOCC3)cc(-c3cccc(CN(C)CCNC4CC4)c3)nc21	log10 IC50	1.06
CCS(=O)(=O)Nc1cc(-c2cccc(CN(C)CCNC)c2)nc2c1cnn2C(C)C	log10 IC50	1.05
